Measured clearance accompanies every entry in the list below.
assay-procedure: In vivo clearance in nonhuman primate at 0.2 mg/kg, iv by HPLC analysis
Assay type: ADME, organism-based
test-parameters: primates
Give the quantity in mL/min/kg, number only.

Some compounds with recorded clearance:
CC(C)(O)c1cc(F)c2c(c1)C(=O)N(Cc1ccc(C#N)cn1)[C@@]2(OCC1(CO)CC1)c1ccc(Cl)cc1	16
CC(C)(O)c1cc(F)c2c(c1)C(=O)N(Cc1ccc(Cl)cn1)[C@@]2(OCC1(C(N)=O)CC1)c1ccc(Cl)cc1	9
[2H]C([2H])(O)C1(C([2H])([2H])O[C@]2(c3ccc(Cl)cc3)c3c(F)cc(C(C)(C)O)cc3C(=O)N2Cc2ccc(C#N)cn2)CC1	11

# input Look up and state reported clearance for CC(C)(O)c1cc(F)c2c(c1)C(=O)N(Cc1ccc(Cl)cn1)[C@@]2(OCC1(O)CC1)c1ccc(Cl)cc1
# output 17
